Listing: Bliss excess of selected compounds
- Test system: NCI-H1581 (Non-Small Cell Lung Carcinoma)
- PROCEDURE_SUMMARY: Bliss excess, mean over the matrix (fraction); higher = more synergy;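 note: after 72 h of two-drug dosing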

COMPOUND: COc1cccc(OCCCN)c1-c1cc(Nc2cnc(C#N)cn2)n[nH]1 [Prexasertib] + C=CCn1c(=O)c2cnc(Nc3ccc(N4CCN(C)CC4)cc3)nc2n1-c1cccc(C(C)(C)O)n1 [AZD1775] (first compound max 1 µM, partner max 1 µM)
Bliss excess: 0.155

COMPOUND: Cn1cnc2c(F)c(Nc3ccc(Br)cc3Cl)c(C(=O)NOCCO)cc21 [Selumetinib] + C[C@@H]1COCCN1C2=NC(=NC(=C2)C3(CC3)[S@](=N)(=O)C)C4=C5C=CNC5=NC=C4 [AZD6738] (first compound max 10 µM, 7x7, partner max 10 µM)
Bliss excess: -0.0025

COMPOUND: Cc1cc2ncnn2cc1Nc1ncc2c(n1)n(C1CCOCC1)c(=O)n2C [AZD7648] + CN(C)CCCOc1ccc(-c2ccc3ncc4c(c3c2)n(C2CCOCC2)c(=O)n4C)cn1 [AZD0156] (first compound max 10 µM, 7x7, partner max 1 µM)
Bliss excess: 0.0088

COMPOUND: Cn1cnc2c(F)c(Nc3ccc(Br)cc3Cl)c(C(=O)NOCCO)cc21 [Selumetinib] + C=CCn1c(=O)c2cnc(Nc3ccc(N4CCN(C)CC4)cc3)nc2n1-c1cccc(C(C)(C)O)n1 [AZD1775] (first compound max 10 µM, partner max 1 µM)
Bliss excess: 0.0258

COMPOUND: N#Cc1cnc(Nc2cc(NC[C@H]3CNCCO3)c(C(F)(F)F)cn2)cn1 [SRA737] + Nc1ccn([C@@H]2O[C@H](CO)[C@@H](O)C2(F)F)c(=O)n1 [Gemcitabine] (first compound max 10 µM, 7x7, partner max 0.3 µM)
Bliss excess: 0.176

* * *

- Tested on: SK-MG-1 (Low Grade Glioma)
- PROCEDURE_SUMMARY: Bliss excess, mean over the matrix (fraction); higher = more synergy

COMPOUND: COc1cccc(OCCCN)c1-c1cc(Nc2cnc(C#N)cn2)n[nH]1 [Prexasertib] + Cc1cc2ncnn2cc1Nc1ncc2c(n1)n(C1CCOCC1)c(=O)n2C [AZD7648] (first compound max 1 µM, 7x7, partner max 10 µM)
MEASURED_ON: SK-MG-1 (Low Grade Glioma)
Bliss excess: -0.0257
//
COMPOUND: NC1(C(=O)N[C@@H](CCO)c2ccc(Cl)cc2)CCN(c2ncnc3[nH]ccc23)CC1 [Capivasertib] + Cn1cnc2c(F)c(Nc3ccc(Br)cc3Cl)c(C(=O)NOCCO)cc21 [Selumetinib] (first compound max 10 µM, 7x7, partner max 10 µM)
MEASURED_ON: SK-MG-1 (Low Grade Glioma)
Bliss excess: 0.0059
//
COMPOUND: Cn1cnc2c(F)c(Nc3ccc(Br)cc3Cl)c(C(=O)NOCCO)cc21 [Selumetinib] + C=CCn1c(=O)c2cnc(Nc3ccc(N4CCN(C)CC4)cc3)nc2n1-c1cccc(C(C)(C)O)n1 [AZD1775] (first compound max 10 µM, partner max 1 µM)
MEASURED_ON: SK-MG-1 (Low Grade Glioma)
Bliss excess: -0.106
//
COMPOUND: NC1(C(=O)N[C@@H](CCO)c2ccc(Cl)cc2)CCN(c2ncnc3[nH]ccc23)CC1 [Capivasertib] + COc1nnc2ccc(N3CCC(c4ccc(OCCN5CCN(C)C(=O)[C@H]5C)cc4)CC3)nn12 [AZD5153] (first compound max 10 µM, 7x7, partner max 1 µM)
MEASURED_ON: SK-MG-1 (Low Grade Glioma)
Bliss excess: 0.0477
//
COMPOUND: Cn1cnc2c(F)c(Nc3ccc(Br)cc3Cl)c(C(=O)NOCCO)cc21 [Selumetinib] + CCN(CCO)CCCOc1ccc2c(Nc3cc(CC(=O)Nc4cccc(F)c4)[nH]n3)ncnc2c1 [AZD2811] (first compound max 10 µM, 7x7, partner max 1 µM)
MEASURED_ON: SK-MG-1 (Low Grade Glioma)
Bliss excess: -0.0245
//
COMPOUND: Cc1c2c(nn1C)CSCc1cc(n(C)n1)CSc1cc(c3ccccc3c1)OCCCc1c(C(=O)O)n(C)c3c-2c(Cl)ccc13 [AZD5991] + C[C@@H](Nc1cc(F)cc(F)c1)c1cc(C(=O)N(C)C)cc2c(=O)cc(N3CCOCC3)oc12 [AZD8186] (first compound max 1 µM, 7x7, partner max 3 µM)
MEASURED_ON: SK-MG-1 (Low Grade Glioma)
Bliss excess: -0.0124
//
COMPOUND: C=CCn1c(=O)c2cnc(Nc3ccc(N4CCN(C)CC4)cc3)nc2n1-c1cccc(C(C)(C)O)n1 [AZD1775] + C1CN(CCC1(C(=O)N[C@@H](CCO)C2=CC=C(C=C2)Cl)N)C3=NC=NC4=C3C=CN4 [Capivasertib] (first compound max 3 µM, partner max 3 µM)
MEASURED_ON: SK-MG-1 (Low Grade Glioma)
Bliss excess: -0.0212
